biological target: human recombinant PAK1-KD protein (Homo sapiens); assay: PAK1-KD (Kinase Domain) IC50 Zlyte Assay (FRET peptide substrate phosphorylation); conditions: Z'-LYTE, Biological Example 1
Sequence (Q13153 270-521 limits assumed): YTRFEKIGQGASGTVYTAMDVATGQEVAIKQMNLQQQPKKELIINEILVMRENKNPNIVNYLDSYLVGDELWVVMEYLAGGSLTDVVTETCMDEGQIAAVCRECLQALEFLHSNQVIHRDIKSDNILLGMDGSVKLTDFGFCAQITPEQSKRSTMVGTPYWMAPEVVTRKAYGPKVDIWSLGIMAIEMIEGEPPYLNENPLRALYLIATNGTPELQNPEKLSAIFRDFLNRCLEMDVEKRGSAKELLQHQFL
Each entry below lists one item and its recorded Ki value.
OUTCOME_MEASURE: Ki (nM)

>  <COMPOUND>
Cc1cncc(-c2ccc(-c3cc4cnc(NC5COC5)nc4n(CCCC(N)=O)c3=O)c(Cl)c2)n1 [Example I-55]

>  <READOUT_UNIT>
nM

>  <NUMERIC_READOUT>
29.8

$$$$
>  <COMPOUND>
CCNc1ncc2cc(-c3ccc(-c4cncc(C)n4)cc3Cl)c(=O)n(CC[C@@H]3[C@H]4CNC[C@@H]34)c2n1 [Example I-65]

>  <READOUT_UNIT>
nM

>  <NUMERIC_READOUT>
14.5

$$$$
>  <COMPOUND>
CCNc1ncc2cc(-c3ccc(-c4cncc(C)n4)cc3Cl)c(=O)n(CC(=O)N3CCOCC3)c2n1 [Example I-26]

>  <READOUT_UNIT>
nM

>  <NUMERIC_READOUT>
137

$$$$
>  <COMPOUND>
CNc1ncc2cc(-c3ccc(-c4cccc(C)n4)cc3Cl)c(=O)n(C[C@H]3[C@@H]4CN(C)C[C@@H]43)c2n1 [Example I-176]

>  <READOUT_UNIT>
nM

>  <NUMERIC_READOUT>
11

$$$$
